Reported yeast fitness values are given for each entry in this list.
B1: tRNA (parent)
chain: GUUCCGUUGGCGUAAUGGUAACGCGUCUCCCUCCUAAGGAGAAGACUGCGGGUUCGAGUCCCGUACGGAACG

variants of: B1; test: yeast fitness relative to wild type (ratio to wild type); higher = fitter; tRNA-Arg(CCU), competitive growth, 37 C, YPD
Fewer inactive variants are shown than the library holds.
Observed Property: yeast fitness

Mutation Label	Sign	Numeric Readout
G25A A45C C66U G67C	=	0.608
C24U C27A C30U G68C	≤	0.5
C4A C31A C33G U47A A65C	=	0.627
C5U G52A	=	0.697
G17A A21C	=	0.67
G6C C24A A69U	≤	0.5
U3G C5G G10A C30A C31G C49A C60U G67A	=	0.572
C11G C27U C60A	=	0.535
G10C C11U A20C A57U	≤	0.5
C29A A65U G67A	=	0.5
C29U A43C G50C C60A	=	0.634
C31U A37G G68C	≤	0.5
C31U A42U A43U C60U A69U	=	0.51
G9C U16C C30U	=	0.506
G12A C46U C62U	=	0.732
A14G G41A G44C C49U	≤	0.5
C4G A21G C27U G52C G58A	≤	0.5
C24G C34G G44C	≤	0.5
C30G A69C	=	0.687
U8G C24U	=	0.626
C27G G50C	≤	0.5
U13C C61U	=	0.928
G10A G17A C61A C62U A65U A69C	≤	0.5
U7C C24U U54A	≤	0.5
C30A	=	0.998
A21G A43U	=	0.963
C5G A43G A69C	=	0.615
G18A U19A C27U	=	0.707
G6C A14G A20C U47C U64A G67A	≤	0.5
U16G G23A A40U	≤	0.5
A21G C22A G25A C46U U54A	≤	0.5
C4U U54A C62U	≤	0.5
C5A G10U C30U A43C A69C	≤	0.5
C24A A45G C61U	≤	0.5
G25A C33G A57G G58A U59C A65U	≤	0.5
U2C G39A G44A	=	0.66
U19A C27U A43U C55U	≤	0.5
C5A U35G U47C C61G	≤	0.5
C5G C27U G51A	≤	0.5
U26A G58C A65G	=	0.611
U2C G44A	=	0.86
U8A C11U U47G	≤	0.5
C4A C5A A20U A69C	=	0.551
A14G U19G C27G C34A A42U	≤	0.5
A14G U53G G56A C61U	=	0.656
C11A G38A	=	0.579
A21U C33A	=	0.578
G10A U53C	=	0.608
A40U C49U C62A C66A	≤	0.5
A21G G25A G48C C62A	≤	0.5
C4G A40G G56C	=	0.537
C5A A20U C31U C61U U64A	≤	0.5
C29U C49A U64C	=	0.597
A21U C33G A42G G44A U64C	=	0.558
C11A C34U U53C A69C	≤	0.5
C11U C27A G48A U53A C61G	≤	0.5
C61A G63C	=	0.618
U2C G9U A20C A57G A65C	≤	0.5
U32C U35A U47C	≤	0.5
C4U A20G	=	0.979
G12A A40C G58C U59C G63A	≤	0.5
C34A A40G	=	0.609
U7C A14G C29U C31U C33U	=	0.592
U47A	=	0.99
C55G U59A C62U	≤	0.5
G9C A21G A69U	=	0.512
C11G C29U C34U	=	0.506
A20U U26C C30A U47A A65U	≤	0.5
G17C A70G	=	0.616
U2A U3A G63C	≤	0.5
U26C U28A A65U	=	0.524
U13A G38C G58C	=	0.798
A21G C27U A69C	=	0.781
A20U G50A U59C	=	0.619
C5G A14C A37G	≤	0.5
G25C G50C G56A G58A	≤	0.5
C29G G56C	≤	0.5
A20G C24A C29G A37U G39A U47C	≤	0.5
G9C U13C A69C	=	0.564
A40G A65U	=	0.813
C49G A70G	=	0.832
A21G C29G C62U	=	0.651
G44A C61G	=	0.597
G56C A70G	=	0.672
C11A U35A C61U G67A	≤	0.5
U53G A57G C62U	=	0.62
G25C C34G	=	0.551
C4U G18A C22U A40C	≤	0.5
U16C C31G	=	0.838
U26A C27U	=	0.919
C22G C34G A70C	=	0.608
